- condition: in DMF, 298.45 K

item-smiles	solubility (mole fraction)
c1ccc2cc3ccccc3cc2c1	0.0054

----------
- condition: in NMP, 318.15 K

item-smiles	solubility (mole fraction)
c1ccc2cc3ccccc3cc2c1	0.0409

----------
- condition: in DMF, 359.48 K

item-smiles	solubility (mole fraction)
c1ccc2cc3ccccc3cc2c1	0.0452

----------
- condition: in DMF, 334.55 K

item-smiles	solubility (mole fraction)
c1ccc2cc3ccccc3cc2c1	0.0211

----------
- condition: in NMP, 314.05 K

item-smiles	solubility (mole fraction)
c1ccc2cc3ccccc3cc2c1	0.0325

----------
- condition: in DMF, 348.29 K

item-smiles	solubility (mole fraction)
c1ccc2cc3ccccc3cc2c1	0.032

----------
- condition: in DMAc, 350.3 K

item-smiles	solubility (mole fraction)
c1ccc2cc3ccccc3cc2c1	0.0502

----------
- condition: in DMF, 353.55 K
measure: solubility (mole fraction)

item-smiles	measured-number
c1ccc2cc3ccccc3cc2c1	0.0384

----------
- condition: in DMF, 312.8 K
measure: solubility (mole fraction)

item-smiles	measured-number
c1ccc2cc3ccccc3cc2c1	0.0101

----------
- condition: in DMF, 313.21 K
measure: solubility (mole fraction)

item-smiles	measure	measured-number
c1ccc2cc3ccccc3cc2c1	solubility (mole fraction)	0.0114

----------
- condition: in DMF, 313.65 K
measure: solubility (mole fraction)

item-smiles	result
c1ccc2cc3ccccc3cc2c1	0.0104

----------
- condition: in DMF, 308.45 K

item-smiles	solubility (mole fraction)
c1ccc2cc3ccccc3cc2c1	0.0086

----------
- condition: in DMAc, 348.45 K
measure: solubility (mole fraction)

item-smiles	measure	measured-number
c1ccc2cc3ccccc3cc2c1	solubility (mole fraction)	0.0432

----------
- condition: in DMF, 358.85 K

item-smiles	solubility (mole fraction)
c1ccc2cc3ccccc3cc2c1	0.0448

----------
- condition: in NMP, 303.45 K

item-smiles	solubility (mole fraction)
c1ccc2cc3ccccc3cc2c1	0.0217

----------
- condition: in DMAc, 354.55 K
measure: solubility (mole fraction)

item-smiles	result
c1ccc2cc3ccccc3cc2c1	0.0485

----------
- condition: in DMAc, 333.15 K
measure: solubility (mole fraction)

item-smiles	measured-number
c1ccc2cc3ccccc3cc2c1	0.029

----------
- condition: in NMP, 324.75 K

item-smiles	solubility (mole fraction)
c1ccc2cc3ccccc3cc2c1	0.0455

----------
- condition: in DMAc, 313.95 K
measure: solubility (mole fraction)

item-smiles	result
c1ccc2cc3ccccc3cc2c1	0.0185

----------
- condition: in DMF, 303.15 K

item-smiles	solubility (mole fraction)
c1ccc2cc3ccccc3cc2c1	0.0068

----------
- condition: in NMP, 350.45 K
measure: solubility (mole fraction)

item-smiles	measured-number
c1ccc2cc3ccccc3cc2c1	0.0825

----------
- condition: in DMAc, 344.95 K
measure: solubility (mole fraction)

item-smiles	measured-number
c1ccc2cc3ccccc3cc2c1	0.0393

----------
- condition: in NMP, 331.21 K
measure: solubility (mole fraction)

item-smiles	measured-number
c1ccc2cc3ccccc3cc2c1	0.0546

----------
- condition: in DMF, 333.15 K

item-smiles	solubility (mole fraction)
c1ccc2cc3ccccc3cc2c1	0.0191

----------
- condition: in DMF, 318.85 K
measure: solubility (mole fraction)

item-smiles	result
c1ccc2cc3ccccc3cc2c1	0.0131

----------
- condition: in DMAc, 324.25 K
measure: solubility (mole fraction)

item-smiles	measure	measured-number
c1ccc2cc3ccccc3cc2c1	solubility (mole fraction)	0.025

----------
- condition: in DMAc, 359.25 K

item-smiles	solubility (mole fraction)
c1ccc2cc3ccccc3cc2c1	0.0564

----------
- condition: in NMP, 339.75 K

item-smiles	solubility (mole fraction)
c1ccc2cc3ccccc3cc2c1	0.0653

----------
- condition: in NMP, 349.85 K

item-smiles	solubility (mole fraction)
c1ccc2cc3ccccc3cc2c1	0.0804

----------
- condition: in NMP, 331.25 K

item-smiles	solubility (mole fraction)
c1ccc2cc3ccccc3cc2c1	0.0539

----------
- condition: in DMAc, 293.15 K

item-smiles	solubility (mole fraction)
c1ccc2cc3ccccc3cc2c1	0.0083

----------
- condition: in NMP, 335.25 K
measure: solubility (mole fraction)

item-smiles	measured-number
c1ccc2cc3ccccc3cc2c1	0.0591

----------
- condition: in DMF, 326.28 K
measure: solubility (mole fraction)

item-smiles	measure	measured-number
c1ccc2cc3ccccc3cc2c1	solubility (mole fraction)	0.0166

----------
- condition: in DMF, 329.15 K
measure: solubility (mole fraction)

item-smiles	result
c1ccc2cc3ccccc3cc2c1	0.018

----------
- condition: in DMAc, 303.85 K

item-smiles	solubility (mole fraction)
c1ccc2cc3ccccc3cc2c1	0.0142

----------
- condition: in DMAc, 308.75 K

item-smiles	solubility (mole fraction)
c1ccc2cc3ccccc3cc2c1	0.0159

----------
- condition: in NMP, 344.55 K

item-smiles	solubility (mole fraction)
c1ccc2cc3ccccc3cc2c1	0.0738

----------
- condition: in DMF, 303 K

item-smiles	solubility (mole fraction)
c1ccc2cc3ccccc3cc2c1	0.0057

----------
- condition: in NMP, 299.15 K

item-smiles	solubility (mole fraction)
c1ccc2cc3ccccc3cc2c1	0.0186

----------
- condition: in DMF, 349.85 K

item-smiles	solubility (mole fraction)
c1ccc2cc3ccccc3cc2c1	0.0336

----------
- condition: in DMAc, 339.35 K

item-smiles	solubility (mole fraction)
c1ccc2cc3ccccc3cc2c1	0.0338

----------
- condition: in DMF, 318.15 K

item-smiles	solubility (mole fraction)
c1ccc2cc3ccccc3cc2c1	0.0127
